STUDY_SYSTEM: cystathionine γ-lyase (PaCGL) (Pseudomonas aeruginosa, UniProt Q9I6A0)
Construct: 394-residue PaCGL (PAO1_PA0400), 6x-His tagged; homotetramer
Sequence (Q9I6A0 entry or part of it): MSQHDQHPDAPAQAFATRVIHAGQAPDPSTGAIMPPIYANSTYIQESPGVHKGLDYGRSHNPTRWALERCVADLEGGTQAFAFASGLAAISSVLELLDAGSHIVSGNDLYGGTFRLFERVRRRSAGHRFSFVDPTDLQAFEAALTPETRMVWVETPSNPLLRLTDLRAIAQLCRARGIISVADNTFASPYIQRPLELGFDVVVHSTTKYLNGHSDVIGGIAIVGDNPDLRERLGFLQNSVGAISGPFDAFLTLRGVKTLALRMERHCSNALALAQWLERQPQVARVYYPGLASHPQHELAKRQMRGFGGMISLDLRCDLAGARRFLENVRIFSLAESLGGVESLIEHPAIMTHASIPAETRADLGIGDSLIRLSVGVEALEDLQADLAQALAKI
ASSAY_PROCEDURE: intrinsic fluorescence titration of apo-PaCGL; […] Å crystal structure
READOUT: Kd (nM)
Expressed in nM, but write only the number.

Please give the measured Kd for this molecule: Cc1ncc(COP(=O)(O)O)c(C=O)c1O
150

The measured values listed here are drawn from paper PMC11039470.
